Recorded PBM binding z-score by entry
- System: LXRb homodimer (NR concentration 270 nM)
- METHOD: PBM binding z-score (relative to random genomic background probes); higher = stronger binding; sequences stand for … in GC…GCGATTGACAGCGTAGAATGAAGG

The cases that follow already have their PBM binding z-score on record.
CAAACTAGGTCAAGGGTCAAAGTCGAGCCAACCA | 1.02
CCCACTGGGCCAAAGGTCATTGATTCCAATGCTC | 0.641
CAAACTAGCTCAAGAGGTCAAAGTCCGCTTCCCG | 1.67

Here is the next item to consider.
What value of PBM binding z-score has been reported for the following sequence? "GATACAGGGTCAGCTAGAGGCCAAAGTATGGAAA"
-0.391

----------
Recorded PBM binding z-score by entry
- Test system: PPARg DBDmut IVT, anti-PPARg (DBD mutation: PPARg1 K132A/R137A, NR concentration 270 nM)
- METHOD: PBM binding z-score (relative to random genomic background probes); higher = stronger binding; sequences stand for … in GC…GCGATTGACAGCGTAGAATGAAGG
Hey, just send me the number, nothing else.

The cases that follow already have their PBM binding z-score on record.
TCATCTAGGTAAAGGTGAAAGTCGAACGATATGA | 0.677
CGAACTAGGTCATTGACAGAACAGTGAATAGTAA | 2.64
ACTAGCAGGCCAAGTTTGGGTCAGTCAAACAAAG | -0.95
CGTCCAAGCTCATAGGAGGTCAGTGAAGACAGAT | -0.262

What reported PBM binding z-score corresponds to "ATCGAAAGGTAGAAGGTGAGTATACCCACCCGAA" on PPARg DBDmut IVT, anti-PPARg (DBD mutation: PPARg1 K132A/R137A, NR concentration 270 nM)?
-0.025

What do you get for "TTACGAAGGTGAAGGTCGTTGATCCCTCTGTAGA" ?
-0.332

----------
- Test system: LXRb homodimer (NR concentration 270 nM)
- METHOD: PBM binding z-score (relative to random genomic background probes); higher = stronger binding; sequences stand for … in GC…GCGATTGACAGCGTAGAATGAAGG
Mark Not fulfilled for PBM binding z-score values under 0.4, and Fulfilled for everything at or above.

GTTACAGGGTCAGCTAGAGGCCAGAGTATGGAAA | Not fulfilled
CCGACTGCGGCAAGGTTACCATAACGCACAGCCA | Not fulfilled
GCTAGTTGGTCAGAAAAAGGTCACACACCGGTCG | Fulfilled
ATCTCTAGGTAAGACTCACTTCAGTGAAGAACGC | Fulfilled
AATACAGCGTCATCGTAGGCCAGAGTACGCACAG | Not fulfilled
CCTACTGGGCCATTCCGAGGTCATTGATCATATG | Not fulfilled
CGTCACAGTTCAACTAAGGTAACGTAAAGCACGC | Not fulfilled
CCTACTGGGCCAAAAAGGTCAATGATGCCGATAA | Not fulfilled

Please tell me: is the sequence "TCTAGTTGGTCACAGGTCACACACTCGAAATGCG" at or over 0.4 in terms of PBM binding z-score?
Fulfilled

What do you get for "ACTATTAGTTGACTTACGGCAACCGATACGACGC" ?
Fulfilled

What do you get for "CGTCCAAGGTCAGAGAGGTCAGAGAATGCCGAGT" ?
Fulfilled

What do you get for "ACCGACAGGTGAGTGAAGGTAACTCAGCTGGACG" ?
Not fulfilled

What do you get for "AGTCTAAGTTCATCTAGGTAACGTAAGATATGCT" ?
Fulfilled

What do you get for "TCTTGAAGATCAACAGGAGGTTAAGAAAGATCGA" ?
Not fulfilled

What do you get for "CGTCCAAGGTCAGAGAGGTCAGTGGATGCCGAGT" ?
Not fulfilled

What do you get for "CCTACTGGGCCAAAAAGGTCATTGGTGCCGATAA" ?
Not fulfilled

What do you get for "CGAACTAGGTCATTGACAGGACAGTGAATAGTAA" ?
Not fulfilled
